- testedSystem: EPHA6 (human)
- test: radiometric filter-binding kinase assay, Kinase HotSpot
- assayContext: compound 0.5 µM; ATP 10 µM
Entries and their measured residual activity follow.
Express your answer in %, writing the number without its unit.

1. Fc1ccc(-c2nc3n(c2-c2ccncc2)CCS3)cc1    94.7
2. N#Cc1c[nH]c2c[nH]/c(=N\Cc3cccnc3)cc2/c1=N\c1ccc(F)c(Cl)c1    76.2
3. Cc1nc(-c2ccccc2)c(-c2ccncc2)o1    95.9
4. CS(=O)(=O)CCNCc1ccc(-c2ccc3ncnc(Nc4ccc(OCc5cccc(F)c5)c(Cl)c4)c3c2)o1    115

For the molecule shown here, COc1cc2ncnc(Nc3ccc(Oc4ccccc4)cc3)c2cc1OC , give the reported residual activity.
64.8

Data request, read-out residual activity, for CO[C@@H]1[C@H](N(C)C(=O)c2ccccc2)C[C@H]2O[C@]1(C)n1c3ccccc3c3c4c(c5c6ccccc6n2c5c31)C(=O)NC4
79.5

Endpoint output: residual activity of COc1cc(Nc2c(C#N)cnc3cc(OCCCN4CCN(C)CC4)c(OC)cc23)c(Cl)cc1Cl . Value?
4.38

----------
- testedSystem: TTK (human) (UniProt P33981)
- Sequence (P33981 whole entry, looked up): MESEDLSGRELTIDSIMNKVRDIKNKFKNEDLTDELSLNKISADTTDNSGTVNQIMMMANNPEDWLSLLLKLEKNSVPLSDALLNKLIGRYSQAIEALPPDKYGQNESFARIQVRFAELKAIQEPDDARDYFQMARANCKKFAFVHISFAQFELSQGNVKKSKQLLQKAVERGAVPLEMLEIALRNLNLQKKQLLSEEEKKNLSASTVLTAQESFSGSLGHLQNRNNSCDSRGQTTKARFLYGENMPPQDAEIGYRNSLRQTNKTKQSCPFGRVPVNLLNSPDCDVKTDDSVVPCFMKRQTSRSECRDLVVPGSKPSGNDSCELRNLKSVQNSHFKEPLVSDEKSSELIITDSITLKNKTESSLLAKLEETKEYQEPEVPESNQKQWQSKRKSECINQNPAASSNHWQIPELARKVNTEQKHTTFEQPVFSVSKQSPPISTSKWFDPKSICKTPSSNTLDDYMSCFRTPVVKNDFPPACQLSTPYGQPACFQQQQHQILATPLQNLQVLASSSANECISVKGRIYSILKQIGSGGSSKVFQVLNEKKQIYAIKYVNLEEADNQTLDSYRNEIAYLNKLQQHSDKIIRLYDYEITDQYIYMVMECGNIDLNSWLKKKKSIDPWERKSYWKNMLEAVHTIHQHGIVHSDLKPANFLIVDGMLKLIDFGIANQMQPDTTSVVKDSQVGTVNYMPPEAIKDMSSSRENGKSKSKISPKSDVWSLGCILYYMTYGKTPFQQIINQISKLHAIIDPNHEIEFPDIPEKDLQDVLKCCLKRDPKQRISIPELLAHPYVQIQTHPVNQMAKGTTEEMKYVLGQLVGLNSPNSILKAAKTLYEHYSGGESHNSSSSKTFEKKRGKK
- test: radiometric filter-binding kinase assay, Kinase HotSpot
- assayContext: compound 0.5 µM; ATP 10 µM
# key: entry, value: residual activity
Express your answer in %, writing the number without its unit.

Example cases with answers are listed next.
1. COc1ccc2c(c1)/C(=C/c1cnc[nH]1)C(O)=N2    59.9
2. COc1ccc2c(c1)c(C1=C(c3c[nH]c4ccccc34)C(=O)NC1=O)cn2CCCN(C)C    89.9

I'd like to know its residual activity. The compound in question is CCCCc1c(-c2ccc(OC)cc2)[nH]c2nccnc12
87.9

// query residual activity value for entry N#C/C(=C\c1ccc(O)c(O)c1)C(=O)NCc1ccccc1
103

For the compound Cc1cncc2cccc(S(=O)(=O)N3CCCN(C(=O)CN)C[C@H]3C)c12 , what residual activity is on record?
111

Which residual activity value is on record for COc1ccc(C(=O)Nc2sc3c(c2C(N)=O)CCCC3)cc1OC ?
95.6

----------
- testedSystem: UniProtKB Q9UQM7
- Sequence (Q9UQM7 whole entry, looked up): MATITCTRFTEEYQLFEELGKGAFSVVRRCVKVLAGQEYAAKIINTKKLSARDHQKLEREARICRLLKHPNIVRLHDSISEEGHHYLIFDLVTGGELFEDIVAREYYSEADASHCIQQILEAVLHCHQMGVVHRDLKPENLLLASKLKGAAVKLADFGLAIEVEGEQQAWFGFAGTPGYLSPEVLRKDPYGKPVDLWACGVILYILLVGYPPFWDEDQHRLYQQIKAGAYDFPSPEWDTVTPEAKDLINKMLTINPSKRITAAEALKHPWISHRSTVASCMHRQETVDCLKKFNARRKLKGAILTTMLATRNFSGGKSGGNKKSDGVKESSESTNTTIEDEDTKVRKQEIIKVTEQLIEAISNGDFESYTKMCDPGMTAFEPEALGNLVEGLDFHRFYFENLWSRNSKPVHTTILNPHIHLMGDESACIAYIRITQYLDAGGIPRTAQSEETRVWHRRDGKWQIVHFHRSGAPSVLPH
- test: radiometric filter-binding kinase assay, Kinase HotSpot
- assayContext: compound 0.5 µM; ATP 10 µM
residual activity for assorted compounds

Sample records with residual activity:
1) C[C@@H]1CCN(C(=O)CC#N)C[C@@H]1N(C)c1ncnc2[nH]ccc12    99.6%
2) O=C1C(Cl)=C(N2C(=O)CCC2=O)C(=O)c2ccccc21    89.6%
3) COc1ccc(C(=O)Nc2sc3c(c2C(N)=O)CCCC3)cc1OC    100%
4) Cc1cncc2cccc(S(=O)(=O)N3CCCN(C(=O)CN)C[C@H]3C)c12    93.2%
5) O=C1Nc2ccc(Br)cc2/C1=C\c1cc2c([nH]1)CCCC2    93.3%

Now consider a different compound.
Recorded residual activity for O=C(c1cc2cc(O)ccc2[nH]1)c1cc2cc(O)ccc2[nH]1 , please?
74.5%

----------
Attribute: residual activity
- testedSystem: UniProt Q6P2M8
- Sequence (Q6P2M8 whole entry, looked up): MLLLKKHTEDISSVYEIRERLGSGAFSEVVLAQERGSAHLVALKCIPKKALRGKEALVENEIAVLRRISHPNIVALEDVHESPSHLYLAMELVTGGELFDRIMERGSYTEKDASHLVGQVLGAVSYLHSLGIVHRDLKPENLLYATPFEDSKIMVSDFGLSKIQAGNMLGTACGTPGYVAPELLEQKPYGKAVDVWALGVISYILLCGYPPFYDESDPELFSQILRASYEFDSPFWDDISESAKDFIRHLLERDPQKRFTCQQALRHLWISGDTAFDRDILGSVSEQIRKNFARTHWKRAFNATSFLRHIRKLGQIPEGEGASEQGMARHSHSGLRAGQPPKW
- test: radiometric filter-binding kinase assay, Kinase HotSpot
- assayContext: compound 0.5 µM; ATP 10 µM
Give the number; % is assumed, so skip it.

1) COc1ccc(Cl)cc1NC(=O)Nc1cc(C)nc2ccccc12    98.7
2) O=C1c2ccccc2-c2nc3nnnn3nc21    83.4
3) c1ccc2c(-c3ccncc3)c[nH]c2c1    98.5
4) CN(C)CCCn1cc(C2=C(c3c[nH]c4ccccc34)C(=O)NC2=O)c2ccccc21    106
5) NC(=O)c1cccc(-c2cc(Nc3ccc(OC(F)(F)F)cc3)ncn2)c1    109
6) CCCCc1c(-c2ccc(OC)cc2)[nH]c2nccnc12    120
7) C[C@@H]1CCN(C(=O)CC#N)C[C@@H]1N(C)c1ncnc2[nH]ccc12    104
8) CN(C)S(=O)(=O)c1ccc2c(c1)/C(=C/c1cc3c([nH]1)CCCC3)C(=O)N2    95.7
9) N#C/C(=C\c1ccc(O)c(O)c1)C(=O)NCc1ccccc1    97.1
10) O=C1Nc2ccc(Br)cc2/C1=C\c1cc2c([nH]1)CCCC2    98.6

Which measured residual activity value corresponds to O=C1C(Cl)=C(N2C(=O)CCC2=O)C(=O)c2ccccc21 ?
100

Suppose we examine the molecule CS(=O)(=O)CCNCc1ccc(-c2ccc3ncnc(Nc4ccc(OCc5cccc(F)c5)c(Cl)c4)c3c2)o1 ; what residual activity value has been reported?
98.1

For the molecule Cn1c2ccccc2c2c3c(c4c5ccccc5n(CCC#N)c4c21)CNC3=O , what residual activity is on record?
103

Bench note: what residual activity did COc1ccc(S(=O)(=O)N(CCO)c2ccccc2CN(C)C/C=C/c2ccc(Cl)cc2)cc1 show?
99.8

Tell me the measured residual activity of Cc1cncc2cccc(S(=O)(=O)N3CCCN(C(=O)CN)C[C@H]3C)c12 , please.
101

Can you look up the measured residual activity of CC(C)(C)c1cc(C=C(C#N)C#N)cc(Br)c1O for me?
107

Entry under review: Fc1ccc(-c2nc3n(c2-c2ccncc2)CCS3)cc1 . Reported residual activity?
90.3

Which value of residual activity has been reported for COc1ccc(C(=O)Nc2sc3c(c2C(N)=O)CCCC3)cc1OC in the records?
103

What value of measured residual activity is listed for COc1cc(Nc2c(C#N)cnc3cc(OCCCN4CCN(C)CC4)c(OC)cc23)c(Cl)cc1Cl ?
109

----------
- testedSystem: UniProt:Q13557
- Sequence (Q13557 whole entry, looked up): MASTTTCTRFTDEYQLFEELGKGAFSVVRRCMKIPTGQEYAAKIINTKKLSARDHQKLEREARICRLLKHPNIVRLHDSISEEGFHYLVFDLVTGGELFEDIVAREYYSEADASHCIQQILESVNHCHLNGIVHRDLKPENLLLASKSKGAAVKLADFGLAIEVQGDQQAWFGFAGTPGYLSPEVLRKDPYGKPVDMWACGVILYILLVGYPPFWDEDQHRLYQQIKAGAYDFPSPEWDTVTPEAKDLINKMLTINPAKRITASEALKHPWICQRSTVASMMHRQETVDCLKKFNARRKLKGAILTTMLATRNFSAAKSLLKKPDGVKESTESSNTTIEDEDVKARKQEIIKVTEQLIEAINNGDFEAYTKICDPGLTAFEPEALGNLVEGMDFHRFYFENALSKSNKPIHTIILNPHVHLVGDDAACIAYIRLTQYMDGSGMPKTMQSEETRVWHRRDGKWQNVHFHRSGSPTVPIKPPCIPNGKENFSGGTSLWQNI
- test: radiometric filter-binding kinase assay, Kinase HotSpot
- assayContext: compound 0.5 µM; ATP 10 µM
endpointName: residual activity
Please append the unit to your numeric answer.

1. C[C@@H]1CCN(C(=O)CC#N)C[C@@H]1N(C)c1ncnc2[nH]ccc12    98.2%
2. Cc1nc(-c2ccccc2)c(-c2ccncc2)o1    94.2%
3. O=C1C(Cl)=C(N2C(=O)CCC2=O)C(=O)c2ccccc21    109%

// switching to the query compound
Dear colleague, I am looking for the recorded residual activity of the following compound: CC(C)(C)c1cc(C=C(C#N)C#N)cc(Br)c1O
96%

----------
- testedSystem: UniProt P42685
- Sequence (P42685 whole entry, looked up): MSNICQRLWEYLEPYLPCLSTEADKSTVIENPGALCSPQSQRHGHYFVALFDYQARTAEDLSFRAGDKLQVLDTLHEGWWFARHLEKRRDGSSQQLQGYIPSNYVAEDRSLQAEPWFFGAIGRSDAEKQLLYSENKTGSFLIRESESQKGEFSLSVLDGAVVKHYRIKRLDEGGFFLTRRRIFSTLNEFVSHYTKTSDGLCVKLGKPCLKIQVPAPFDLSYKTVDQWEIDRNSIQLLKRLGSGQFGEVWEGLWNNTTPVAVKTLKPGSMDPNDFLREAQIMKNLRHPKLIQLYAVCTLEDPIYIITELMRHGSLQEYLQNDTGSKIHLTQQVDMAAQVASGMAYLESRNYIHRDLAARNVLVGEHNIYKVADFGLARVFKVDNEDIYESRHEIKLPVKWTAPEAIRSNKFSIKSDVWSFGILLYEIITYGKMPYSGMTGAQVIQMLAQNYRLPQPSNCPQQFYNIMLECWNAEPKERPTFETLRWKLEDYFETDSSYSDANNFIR
- test: radiometric filter-binding kinase assay, Kinase HotSpot
- assayContext: compound 0.5 µM; ATP 10 µM
endpointName: residual activity (%)
Field: numeric (%). Do not append units.

Example molecules with recorded residual activity:
1) COc1ccc2c(c1)c(C1=C(c3c[nH]c4ccccc34)C(=O)NC1=O)cn2CCCN(C)C    91.3
2) COc1ccc(C(=O)Nc2sc3c(c2C(N)=O)CCCC3)cc1OC    88.8
3) CO[C@@H]1[C@H](N(C)C(=O)c2ccccc2)C[C@H]2O[C@]1(C)n1c3ccccc3c3c4c(c5c6ccccc6n2c5c31)C(=O)NC4    65.8

Request the reported residual activity associated with CC(C)(C)c1cc(C=C(C#N)C#N)cc(Br)c1O
99.3

Any idea what residual activity was measured for Cc1nc(-c2ccccc2)c(-c2ccncc2)o1 ?
103

----------
Measured residual activity values are reported for all entries that follow.
- testedSystem: CSF1R (human) (UniProt P07333)
- Sequence (P07333 whole entry, looked up): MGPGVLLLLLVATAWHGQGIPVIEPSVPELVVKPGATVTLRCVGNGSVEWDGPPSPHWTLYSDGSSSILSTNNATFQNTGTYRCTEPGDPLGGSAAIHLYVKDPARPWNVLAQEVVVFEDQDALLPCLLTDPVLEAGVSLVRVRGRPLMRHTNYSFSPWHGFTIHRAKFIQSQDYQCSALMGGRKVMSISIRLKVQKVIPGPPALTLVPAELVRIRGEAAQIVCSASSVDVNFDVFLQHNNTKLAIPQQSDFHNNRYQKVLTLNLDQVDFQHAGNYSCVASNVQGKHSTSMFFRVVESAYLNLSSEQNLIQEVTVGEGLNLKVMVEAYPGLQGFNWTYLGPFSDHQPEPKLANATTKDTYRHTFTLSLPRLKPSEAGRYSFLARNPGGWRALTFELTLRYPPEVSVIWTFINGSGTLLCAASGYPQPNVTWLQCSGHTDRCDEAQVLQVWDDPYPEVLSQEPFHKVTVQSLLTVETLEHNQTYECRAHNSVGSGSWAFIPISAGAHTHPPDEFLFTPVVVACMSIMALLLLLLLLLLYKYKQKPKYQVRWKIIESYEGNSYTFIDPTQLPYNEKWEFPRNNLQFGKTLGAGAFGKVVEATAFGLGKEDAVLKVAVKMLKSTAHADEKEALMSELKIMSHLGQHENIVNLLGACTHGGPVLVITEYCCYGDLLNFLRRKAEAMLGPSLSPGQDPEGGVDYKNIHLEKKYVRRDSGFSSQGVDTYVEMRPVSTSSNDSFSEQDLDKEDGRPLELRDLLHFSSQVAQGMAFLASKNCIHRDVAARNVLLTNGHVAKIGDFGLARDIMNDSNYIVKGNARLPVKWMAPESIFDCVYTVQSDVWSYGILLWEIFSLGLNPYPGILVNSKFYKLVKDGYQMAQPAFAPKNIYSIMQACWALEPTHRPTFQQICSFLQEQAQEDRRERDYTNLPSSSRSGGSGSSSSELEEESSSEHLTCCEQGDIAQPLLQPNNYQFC
- test: radiometric filter-binding kinase assay, Kinase HotSpot
- assayContext: compound 0.5 µM; ATP 10 µM
Please give a number only; it is taken to be in %.

What value of residual activity has been recorded for this entry: O=C1Nc2ccc(Br)cc2/C1=C\c1cc2c([nH]1)CCCC2
49.7

Can you look up the measured residual activity of Cn1c2ccccc2c2c3c(c4c5ccccc5n(CCC#N)c4c21)CNC3=O for me?
84.1

----------
- testedSystem: PDGFRB (human)
- test: radiometric filter-binding kinase assay, Kinase HotSpot
- assayContext: compound 0.5 µM; ATP 10 µM
Reported residual activity values are given for each entry in this list.
Write the number in % without appending the unit.

1. c1ccc2c(-c3ccncc3)c[nH]c2c1    105

Data request, read-out residual activity, for CN(C)c1ccc(/C=C2\C(=O)Nc3ccccc32)cc1
85.8

----------
- System: MKNK1 (human), Q9BUB5 [T385D; 165-205 del]
- Sequence (Q9BUB5 whole entry, looked up, stated change not applied): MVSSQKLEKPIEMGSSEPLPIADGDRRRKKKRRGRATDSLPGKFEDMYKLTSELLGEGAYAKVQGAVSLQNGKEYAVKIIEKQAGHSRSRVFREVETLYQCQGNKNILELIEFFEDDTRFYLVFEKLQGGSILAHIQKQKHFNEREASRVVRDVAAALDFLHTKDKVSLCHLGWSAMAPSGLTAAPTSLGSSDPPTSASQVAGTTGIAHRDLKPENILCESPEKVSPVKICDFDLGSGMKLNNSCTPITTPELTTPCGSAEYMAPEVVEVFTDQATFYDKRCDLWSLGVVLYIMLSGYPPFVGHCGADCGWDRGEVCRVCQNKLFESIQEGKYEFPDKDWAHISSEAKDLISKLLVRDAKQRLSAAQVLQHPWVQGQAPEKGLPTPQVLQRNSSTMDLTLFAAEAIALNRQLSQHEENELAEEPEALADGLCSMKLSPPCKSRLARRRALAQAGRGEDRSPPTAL
- test: radiometric filter-binding kinase assay, Kinase HotSpot
- assayContext: compound 0.5 µM; ATP 10 µM
residual activity values for the compounds below.
Numbers only; they are read as %.

Solved cases below.
1. Oc1ccc(-c2nc(-c3ccc(F)cc3)c(-c3ccncc3)[nH]2)cc1    102
2. COc1ccc(COc2ccc(Cc3cnc(N)nc3N)cc2OC)cc1    113
3. CO[C@H]1CC2CC[C@@H](C)[C@@](O)(O2)C(=O)C(=O)N2CCCC[C@H]2C(=O)OC([C@H](C)C[C@@H]2CC[C@@H](O)[C@H](OC)C2)CC(=O)[C@H](C)/C=C(\C)[C@@H](O)[C@@H](OC)C(=O)[C@H](C)C[C@H](C)/C=C/C=C/C=C/1C (stereo partly specified)    101
4. O=c1cc(N2CCNCC2)oc2c(-c3ccccc3)cccc12    107

Given the entry Nc1ncnc2[nH]nc(Nc3ccc(F)cc3)c12 , what residual activity was observed with MKNK1 (human), Q9BUB5 [T385D; 165-205 del]?
75.2
